Target: récepteurs histaminiques H2 (Cavia porcellus)
Assay: Isolated guinea-pig atrium (histamine chronotropic effect, H2 blockade)
Class t: Kb at least 20 nM. Class f: Kb below 20 nM.

>>> label_class("CCCCCCN1Cc2cc(CSCCNc3n[s+]([O-])nc3N)sc2C1 (centres unmarked)")
"t"
>>> label_class("CCCN1Cc2cc(CSCCNc3n[s+]([O-])nc3N)sc2C1 (centres unmarked)")
"f"
>>> label_class("CCN1Cc2cc(CSCCNc3n[s+]([O-])nc3N)sc2C1 (centres unmarked)")
"t"
>>> label_class("CCN1Cc2sc(CSCCNC(=C[N+](=O)[O-])NC)c(C)c2C1")
"t"
>>> label_class("CCCCCN1Cc2cc(CSCCNc3n[s+]([O-])nc3N)sc2C1 (centres unmarked)")
"t"

###

Molecular target: récepteurs histaminiques H2 (Cavia porcellus, UniProt P47747)
Sequence (P47747 whole entry): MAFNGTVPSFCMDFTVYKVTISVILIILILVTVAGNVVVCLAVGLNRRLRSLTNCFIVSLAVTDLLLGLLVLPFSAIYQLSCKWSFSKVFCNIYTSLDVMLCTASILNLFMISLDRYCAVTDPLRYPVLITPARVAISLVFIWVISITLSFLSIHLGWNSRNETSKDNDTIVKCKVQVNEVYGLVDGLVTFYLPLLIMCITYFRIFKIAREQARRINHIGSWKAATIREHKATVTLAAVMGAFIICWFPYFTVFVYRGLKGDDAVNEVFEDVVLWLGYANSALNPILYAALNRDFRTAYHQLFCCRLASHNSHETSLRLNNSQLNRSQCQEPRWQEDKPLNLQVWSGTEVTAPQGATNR
Test: Isolated guinea-pig atrium (histamine chronotropic effect, H2 blockade)
Class YES: Kb at least 40 nM. Class NO: Kb below 40 nM.

>>> label_class("CCCN1Cc2cc(CSCCNc3c(N)c(=O)c3=O)sc2C1")
"YES"
>>> label_class("CCN1Cc2cc(CSCCNc3n[s+]([O-])nc3NC)sc2C1 (stereo not drawn)")
"YES"
>>> label_class("CNC(=C[N+](=O)[O-])NCCSCc1ccc(CN(C)C)o1 [Ranitidine, reference compound]")
"NO"
>>> label_class("CCN1Cc2cc(CSCCNC(=NC#N)NC)sc2C1")
"YES"
>>> label_class("CCCCN1Cc2cc(CSCCNc3n[s+]([O-])nc3N)sc2C1 (stereo not drawn)")
"YES"
>>> label_class("CCN1Cc2cc(CSCCC(N)=NS(N)(=O)=O)sc2C1")
"YES"
